- TEST SYSTEM: PRKAA2 (human) (UniProt P54646)
- Sequence (P54646 whole entry, looked up): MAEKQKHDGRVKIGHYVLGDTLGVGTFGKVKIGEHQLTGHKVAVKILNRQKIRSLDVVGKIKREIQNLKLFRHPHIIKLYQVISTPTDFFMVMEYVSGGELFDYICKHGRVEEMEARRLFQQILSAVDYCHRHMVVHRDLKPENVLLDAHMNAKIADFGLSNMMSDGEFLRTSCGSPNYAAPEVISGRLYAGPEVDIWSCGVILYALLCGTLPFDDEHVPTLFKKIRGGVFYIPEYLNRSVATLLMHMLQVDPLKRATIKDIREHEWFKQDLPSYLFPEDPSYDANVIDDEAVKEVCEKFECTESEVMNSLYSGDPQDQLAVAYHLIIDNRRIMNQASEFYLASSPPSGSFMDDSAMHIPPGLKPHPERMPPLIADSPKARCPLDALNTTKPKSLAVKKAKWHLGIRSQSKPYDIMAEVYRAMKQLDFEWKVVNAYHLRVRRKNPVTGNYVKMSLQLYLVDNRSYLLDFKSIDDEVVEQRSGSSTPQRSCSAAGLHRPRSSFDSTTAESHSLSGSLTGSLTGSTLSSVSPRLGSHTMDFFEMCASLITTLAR
- PROTOCOL DESCRIPTION: KINOMEscan competition binding
- CONDITION SUMMARY: compound 10.0 µM
Reported kinase still bound, per cent of control values are given for each entry in this list.
MEASUREMENT TYPE: kinase still bound, per cent of control (%)

1) COc1cc2ncnc(Nc3cccc(Cl)c3)c2cc1OC : 100
2) CCN1CCN(Cc2ccc(NC(=O)c3ccc(C)c(/C=C/c4cnc5[nH]ccc5c4OC)c3)cc2C(F)(F)F)CC1 : 39
3) CNC(=O)Nc1ccc(-c2nc(N3CC4CCC(C3)O4)c3cnn(C4CCC5(CC4)OCCO5)c3n2)cc1 : 93
4) COc1cc(N2CCC(C(N)=O)CC2)ccc1Nc1nc(N)c(Cl)c(Nc2ccccc2S(=O)(=O)C(C)C)n1 : 100
5) CCN(CCO)CCCOc1ccc2c(Nc3cc(CC(=O)Nc4cccc(F)c4)[nH]n3)ncnc2c1 : 77
6) O=c1[nH]c2ccccc2n1C1CCN(Cc2ccc(-c3nc4cc5[nH]cnc5cc4nc3-c3ccccc3)cc2)CC1 : 95
7) CC1=C(C(=O)Nc2cc3cn[nH]c3cc2F)C(c2ccc(C(F)(F)F)cc2)CC(=O)N1 (stereo not drawn) : 25
8) CCc1nc(-c2cccc(C)c2)c(-c2ccnc(NC(=O)c3ccccc3)c2)s1 : 100
9) CCCS(=O)(=O)Nc1ccc(F)c(C(=O)c2c[nH]c3ncc(Cl)cc23)c1F : 46
10) COc1cc(C)c(Sc2cnc(NC(=O)c3ccc(CNC(C)C(C)C)cc3)s2)cc1C(=O)N1CCN(C(C)=O)CC1 (stereo not drawn) : 100
11) C=CC(=O)Nc1ccc(C(=O)c2sc(Nc3ccc(N4CCN(C)CC4)cc3OC)nc2N)cc1 : 100
12) Cc1cn(-c2cc(C(=O)Nc3ccc(C)c(NC(=O)c4ccno4)c3)cc(C(F)(F)F)c2)cn1 : 100
13) CC(=O)c1c(C)c2cnc(Nc3ccc(N4CCNCC4)cn3)nc2n(C2CCCC2)c1=O : 40
14) N#C/C(=C1/Nc2ccccc2S1)c1ccnc(NCCc2cccnc2)n1 : 100
15) CCOc1cc(N2CCC(O)CC2)ccc1Nc1ncc2c(n1)N(C)c1ccccc1C(=O)N2C : 100
16) N#Cc1cc(-c2ccnc(Nc3ccc(-n4cnc(-c5cccnc5)n4)cc3)n2)cc(N2CCOCC2)c1 : 94
17) COc1cc2c(Nc3ccc(NC(=O)c4ccccc4)cc3)ncnc2cc1OCCCN1CCOCC1 : 72
18) COc1ccc(N(C(=O)Oc2cc(C(=O)Nc3cccc(C(F)(F)F)c3)ccc2C)c2ccnc(Nc3ccc(N4CCN(C)CC4)cc3)n2)c(OC)c1 : 3.3

====

- Tested on: BMX (human), P51813 [V600E]
- Sequence (P51813 whole entry, looked up, stated change not applied): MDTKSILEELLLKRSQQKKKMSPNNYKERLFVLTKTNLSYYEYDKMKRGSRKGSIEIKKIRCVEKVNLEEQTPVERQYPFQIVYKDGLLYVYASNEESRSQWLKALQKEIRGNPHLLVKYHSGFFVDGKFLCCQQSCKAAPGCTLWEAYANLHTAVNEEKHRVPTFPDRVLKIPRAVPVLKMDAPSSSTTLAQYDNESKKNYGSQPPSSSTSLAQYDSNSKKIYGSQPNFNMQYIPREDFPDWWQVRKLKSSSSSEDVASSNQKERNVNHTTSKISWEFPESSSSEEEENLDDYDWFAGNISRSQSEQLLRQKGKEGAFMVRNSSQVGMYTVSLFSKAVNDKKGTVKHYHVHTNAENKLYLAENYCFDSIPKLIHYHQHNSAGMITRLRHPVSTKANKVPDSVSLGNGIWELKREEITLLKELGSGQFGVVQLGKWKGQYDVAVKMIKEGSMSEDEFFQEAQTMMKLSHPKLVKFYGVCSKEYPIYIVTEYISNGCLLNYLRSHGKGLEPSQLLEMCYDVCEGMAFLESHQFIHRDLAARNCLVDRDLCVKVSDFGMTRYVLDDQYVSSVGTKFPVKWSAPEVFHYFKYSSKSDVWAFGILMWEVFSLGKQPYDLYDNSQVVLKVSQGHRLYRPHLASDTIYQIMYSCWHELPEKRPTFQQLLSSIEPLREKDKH
- PROTOCOL DESCRIPTION: KINOMEscan competition binding
- CONDITION SUMMARY: compound 10.0 µM
Rule: measured kinase still bound, per cent of control below 90% gets yes; anything equal to or greater than 90% gets no.

1) CNC(=O)Nc1ccc(-c2nc(N3CC4CCC(C3)O4)c3cnn(C4CCC5(CC4)OCCO5)c3n2)cc1 : no
2) COc1cc2c(Nc3ccc(NC(=O)c4ccccc4)cc3)ncnc2cc1OCCCN1CCOCC1 : no
3) C=CC(=O)Nc1cc(NC(=O)c2ccc(C)c(NC(=O)c3ccno3)c2)cc(C(F)(F)F)c1 : yes
4) N#Cc1c(NC(=O)c2cccc3ccccc23)sc2c1CCCC2 : no
5) CNC(=O)c1cc(Oc2ccc(NC(=O)Nc3ccc(Cl)c(C(F)(F)F)c3)cc2)ccn1 : yes
6) O=c1[nH]c2ccccc2n1C1CCN(Cc2ccc(-c3nc4cc5[nH]cnc5cc4nc3-c3ccccc3)cc2)CC1 : yes
7) O=C1Nc2ccc(I)cc2/C1=C/c1cc(Br)c(O)c(Br)c1 : yes
8) CCCS(=O)(=O)Nc1ccc(F)c(C(=O)c2c[nH]c3ncc(-c4ccc(Cl)cc4)cc23)c1F : yes

====

- TEST SYSTEM: RPS6KA1 KD2 (human)
- PROTOCOL DESCRIPTION: KINOMEscan competition binding
- CONDITION SUMMARY: compound 10.0 µM
MEASUREMENT TYPE: kinase still bound, per cent of control (%)

1. Cc1cn(-c2cc(C(=O)Nc3ccc(C)c(NC(=O)c4ccno4)c3)cc(C(F)(F)F)c2)cn1 : 100
2. COc1cc2ncnc(Nc3cccc(Cl)c3)c2cc1OC : 28
3. CNC(=O)Nc1ccc(-c2nc(N3CC4CCC(C3)O4)c3cnn(C4CCC5(CC4)OCCO5)c3n2)cc1 : 91
4. COc1cc(N2CCC(C(N)=O)CC2)ccc1Nc1nc(N)c(Cl)c(Nc2ccccc2S(=O)(=O)C(C)C)n1 : 30
5. COc1cc(C)c(Sc2cnc(NC(=O)c3ccc(CNC(C)C(C)C)cc3)s2)cc1C(=O)N1CCN(C(C)=O)CC1 (stereo not drawn) : 100
6. O=c1[nH]c2ccccc2n1C1CCN(Cc2ccc(-c3nc4cc5[nH]cnc5cc4nc3-c3ccccc3)cc2)CC1 : 100
7. CCN1CCN(Cc2ccc(NC(=O)c3ccc(C)c(/C=C/c4cnc5[nH]ccc5c4OC)c3)cc2C(F)(F)F)CC1 : 20
8. CCc1nc(-c2cccc(C)c2)c(-c2ccnc(NC(=O)c3ccccc3)c2)s1 : 28
9. CCOc1cc(N2CCC(O)CC2)ccc1Nc1ncc2c(n1)N(C)c1ccccc1C(=O)N2C : 28
10. CCCS(=O)(=O)Nc1ccc(F)c(C(=O)c2c[nH]c3ncc(Cl)cc23)c1F : 75
11. COc1ccc(N(C(=O)Oc2cc(C(=O)Nc3cccc(C(F)(F)F)c3)ccc2C)c2ccnc(Nc3ccc(N4CCN(C)CC4)cc3)n2)c(OC)c1 : 100
12. CC(=O)c1c(C)c2cnc(Nc3ccc(N4CCNCC4)cn3)nc2n(C2CCCC2)c1=O : 38
13. N#Cc1cc(-c2ccnc(Nc3ccc(-n4cnc(-c5cccnc5)n4)cc3)n2)cc(N2CCOCC2)c1 : 77
14. COc1cc2c(Nc3ccc(NC(=O)c4ccccc4)cc3)ncnc2cc1OCCCN1CCOCC1 : 72
15. CCN(CCO)CCCOc1ccc2c(Nc3cc(CC(=O)Nc4cccc(F)c4)[nH]n3)ncnc2c1 : 69
16. CC1=C(C(=O)Nc2cc3cn[nH]c3cc2F)C(c2ccc(C(F)(F)F)cc2)CC(=O)N1 (stereo not drawn) : 83
17. N#C/C(=C1/Nc2ccccc2S1)c1ccnc(NCCc2cccnc2)n1 : 27
18. C=CC(=O)Nc1ccc(C(=O)c2sc(Nc3ccc(N4CCN(C)CC4)cc3OC)nc2N)cc1 : 0.3

====

Reported kinase still bound, per cent of control values are given for each entry in this list.
- TEST SYSTEM: ABL2 (human) (UniProt P42684)
- Sequence (P42684 whole entry, looked up): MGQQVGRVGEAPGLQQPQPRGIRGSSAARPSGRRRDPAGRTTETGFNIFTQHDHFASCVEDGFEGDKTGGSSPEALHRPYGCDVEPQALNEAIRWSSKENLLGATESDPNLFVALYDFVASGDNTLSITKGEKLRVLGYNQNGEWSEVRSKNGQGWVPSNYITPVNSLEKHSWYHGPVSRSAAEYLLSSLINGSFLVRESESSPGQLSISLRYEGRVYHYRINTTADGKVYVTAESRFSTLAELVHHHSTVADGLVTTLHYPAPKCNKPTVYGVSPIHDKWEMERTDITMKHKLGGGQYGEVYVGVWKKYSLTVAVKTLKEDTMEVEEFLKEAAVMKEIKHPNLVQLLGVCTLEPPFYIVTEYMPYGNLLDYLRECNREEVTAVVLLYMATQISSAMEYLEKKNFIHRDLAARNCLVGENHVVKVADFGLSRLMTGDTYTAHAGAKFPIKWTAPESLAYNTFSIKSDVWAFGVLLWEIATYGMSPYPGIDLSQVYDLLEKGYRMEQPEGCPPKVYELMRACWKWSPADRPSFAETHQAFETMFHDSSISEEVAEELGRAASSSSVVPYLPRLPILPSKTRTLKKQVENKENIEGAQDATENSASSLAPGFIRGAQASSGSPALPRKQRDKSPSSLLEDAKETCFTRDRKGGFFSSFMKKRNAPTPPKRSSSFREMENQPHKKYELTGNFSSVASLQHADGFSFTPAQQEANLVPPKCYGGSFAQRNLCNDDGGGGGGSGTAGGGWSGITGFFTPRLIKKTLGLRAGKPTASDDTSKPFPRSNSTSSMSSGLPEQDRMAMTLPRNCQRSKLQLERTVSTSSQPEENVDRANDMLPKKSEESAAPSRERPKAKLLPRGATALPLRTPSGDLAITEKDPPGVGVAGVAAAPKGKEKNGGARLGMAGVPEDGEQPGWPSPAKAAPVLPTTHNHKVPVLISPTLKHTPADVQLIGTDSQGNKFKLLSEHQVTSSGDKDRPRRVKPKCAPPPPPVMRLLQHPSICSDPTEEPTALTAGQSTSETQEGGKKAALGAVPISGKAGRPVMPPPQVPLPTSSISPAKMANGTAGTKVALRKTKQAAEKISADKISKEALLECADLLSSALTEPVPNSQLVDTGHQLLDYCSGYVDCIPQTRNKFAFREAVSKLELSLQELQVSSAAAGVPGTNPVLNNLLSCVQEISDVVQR
- PROTOCOL DESCRIPTION: KINOMEscan competition binding
- CONDITION SUMMARY: compound 10.0 µM
MEASUREMENT TYPE: kinase still bound, per cent of control (%)

1. Cc1cn(-c2cc(C(=O)Nc3ccc(C)c(NC(=O)c4ccno4)c3)cc(C(F)(F)F)c2)cn1 : 1.8
2. CC(=O)c1c(C)c2cnc(Nc3ccc(N4CCNCC4)cn3)nc2n(C2CCCC2)c1=O : 97
3. N#C/C(=C1/Nc2ccccc2S1)c1ccnc(NCCc2cccnc2)n1 : 100
4. COc1cc(N2CCC(C(N)=O)CC2)ccc1Nc1nc(N)c(Cl)c(Nc2ccccc2S(=O)(=O)C(C)C)n1 : 100
5. COc1cc2c(Nc3ccc(NC(=O)c4ccccc4)cc3)ncnc2cc1OCCCN1CCOCC1 : 82
6. N#Cc1cc(-c2ccnc(Nc3ccc(-n4cnc(-c5cccnc5)n4)cc3)n2)cc(N2CCOCC2)c1 : 67
7. CCc1nc(-c2cccc(C)c2)c(-c2ccnc(NC(=O)c3ccccc3)c2)s1 : 47
8. CCCS(=O)(=O)Nc1ccc(F)c(C(=O)c2c[nH]c3ncc(Cl)cc23)c1F : 36
9. COc1cc2ncnc(Nc3cccc(Cl)c3)c2cc1OC : 34

====

- TEST SYSTEM: LATS1 (human) (UniProt O95835)
- Sequence (O95835 whole entry, looked up): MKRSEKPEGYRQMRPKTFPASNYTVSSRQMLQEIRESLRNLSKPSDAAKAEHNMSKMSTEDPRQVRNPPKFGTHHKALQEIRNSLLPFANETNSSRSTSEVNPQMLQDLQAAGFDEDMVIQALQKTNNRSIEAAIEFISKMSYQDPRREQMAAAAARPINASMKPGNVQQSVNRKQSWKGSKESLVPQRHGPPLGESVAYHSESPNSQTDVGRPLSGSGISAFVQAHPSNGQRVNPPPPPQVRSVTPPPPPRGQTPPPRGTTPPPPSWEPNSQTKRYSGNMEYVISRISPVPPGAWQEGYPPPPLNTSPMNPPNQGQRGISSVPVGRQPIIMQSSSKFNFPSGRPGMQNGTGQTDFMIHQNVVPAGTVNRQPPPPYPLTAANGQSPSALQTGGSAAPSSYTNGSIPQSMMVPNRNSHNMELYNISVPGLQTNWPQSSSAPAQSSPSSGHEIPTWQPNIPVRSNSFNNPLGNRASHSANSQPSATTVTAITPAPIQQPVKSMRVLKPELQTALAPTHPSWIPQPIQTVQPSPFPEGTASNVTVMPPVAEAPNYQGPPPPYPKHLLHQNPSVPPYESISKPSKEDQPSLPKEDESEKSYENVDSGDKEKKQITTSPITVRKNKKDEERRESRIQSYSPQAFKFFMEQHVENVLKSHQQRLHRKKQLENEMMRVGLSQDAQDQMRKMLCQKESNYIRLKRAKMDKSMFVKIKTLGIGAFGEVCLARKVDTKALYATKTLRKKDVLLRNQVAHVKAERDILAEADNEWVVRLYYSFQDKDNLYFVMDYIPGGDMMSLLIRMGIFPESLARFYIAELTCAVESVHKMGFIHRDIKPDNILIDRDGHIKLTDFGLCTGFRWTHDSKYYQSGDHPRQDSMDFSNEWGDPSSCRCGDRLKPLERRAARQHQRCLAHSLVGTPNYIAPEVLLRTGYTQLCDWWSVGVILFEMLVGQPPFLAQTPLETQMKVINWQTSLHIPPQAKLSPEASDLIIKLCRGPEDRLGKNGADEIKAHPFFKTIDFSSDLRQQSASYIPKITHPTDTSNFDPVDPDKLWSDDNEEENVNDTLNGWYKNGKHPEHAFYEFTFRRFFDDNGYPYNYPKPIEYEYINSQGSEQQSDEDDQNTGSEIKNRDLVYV
- PROTOCOL DESCRIPTION: KINOMEscan competition binding
- CONDITION SUMMARY: compound 10.0 µM
Reported kinase still bound, per cent of control values are given for each entry in this list.
MEASUREMENT TYPE: kinase still bound, per cent of control (%)

1. COc1cc2c(Nc3ccc(NC(=O)c4ccccc4)cc3)ncnc2cc1OCCCN1CCOCC1 : 100
2. CNC(=O)Nc1ccc(-c2nc(N3CC4CCC(C3)O4)c3cnn(C4CCC5(CC4)OCCO5)c3n2)cc1 : 95
3. COc1ccc(N(C(=O)Oc2cc(C(=O)Nc3cccc(C(F)(F)F)c3)ccc2C)c2ccnc(Nc3ccc(N4CCN(C)CC4)cc3)n2)c(OC)c1 : 100
4. CCCS(=O)(=O)Nc1ccc(F)c(C(=O)c2c[nH]c3ncc(Cl)cc23)c1F : 86
5. C=CC(=O)Nc1ccc(C(=O)c2sc(Nc3ccc(N4CCN(C)CC4)cc3OC)nc2N)cc1 : 82
6. CCOc1cc(N2CCC(O)CC2)ccc1Nc1ncc2c(n1)N(C)c1ccccc1C(=O)N2C : 100
7. CCN(CCO)CCCOc1ccc2c(Nc3cc(CC(=O)Nc4cccc(F)c4)[nH]n3)ncnc2c1 : 100
8. COc1cc(C)c(Sc2cnc(NC(=O)c3ccc(CNC(C)C(C)C)cc3)s2)cc1C(=O)N1CCN(C(C)=O)CC1 (stereo not drawn) : 100

Where these numbers come from: the kinase profiling compilation of Christmann-Franck et al. (2016)
